Recorded measurements of melting point, one per entry

{"columns": ["compound", "melting point"],
 "data": [
  ["CNCC(=O)N(C)c1ccccn1", "108 to 110 °C"],
  ["CC(C)(C)OC(=O)N1CCN(S(=O)(=O)C2CNC2)CC1", "132 to 134 °C"],
  ["NC(=O)C1OCCc2ccccc21 (stereo unspecified)", "169 to 171 °C"],
  ["CC(C)c1ccc(C(N)=S)cc1", "148 to 150 °C"],
  ["COc1ccc(C(=O)C(Cl)c2ccc(OC)cc2)cc1 (stereo unspecified)", "69 to 71 °C"],
  ["NCCCS(=O)(=O)Cc1ccccc1", "63 to 65 °C"],
  ["Cc1[nH]oc(=N)c1Br", "67 to 69 °C"],
  ["COc1ccc(C)cc1-n1cc(C(=O)O)ccc1=O", "244 to 246 °C"],
  ["O=C(O)CC(=O)NC1CC1", "99 to 101 °C"],
  ["NNC(=O)CC1CCCCC1", "119 to 121 °C"],
  ["O=C(O)c1n[nH]c2ccc([N+](=O)[O-])cc12", "253 to 255 °C"],
  ["CC1CCCCC12NC(=O)N(CC(=O)O)C2=O (stereo unspecified)", "156 to 158 °C"],
  ["CC1CCCCC1N1C(=O)C=CC1=O (stereo unspecified)", "40 to 42 °C"],
  ["O=Cc1ccc(N2CCNC(=O)C2)cc1", "192 to 194 °C"],
  ["N#Cc1ccc(C(=O)O)nc1", "210 to 215 °C"],
  ["Cc1ccc(NC(=O)c2cc(Cl)ccc2Cl)c(C(=O)O)c1", "242 to 244 °C"],
  ["COc1cccc(Oc2ccc(N)cc2)c1", "62 to 64 °C"],
  ["Clc1ccc2nccn2n1", "114 to 116 °C"],
  ["O=C(O)c1cc2occc2s1", "188 to 190 °C"],
  ["Cc1ccc(C(C)(C)C)cc1S(N)(=O)=O", "138 to 140 °C"],
  ["Cc1ncc(CO)n1-c1ccccc1", "173 to 175 °C"],
  ["O=C(O)CN1CCOc2ccc(Cl)cc21", "156 to 158 °C"],
  ["Cn1ncnc1N", "180 to 182 °C"],
  ["CCn1cc(S(=O)(=O)Cl)c([N+](=O)[O-])n1", "45 to 47 °C"],
  ["NCc1cc2sccc2s1", "58 to 60 °C"],
  ["O=C(O)Cc1csc(-c2cccnc2)n1", "115 to 117 °C"]
]}

###

{"columns": ["compound", "melting point"],
 "data": [
  ["COc1ccc(C(=O)O)cc1S(=O)(=O)N1CCCCC1C (stereo not given)", "175 to 180 °C"],
  ["CC(C)(C)OC(=O)NC1(CC(=O)O)CCC1", "126 to 128 °C"],
  ["CC(C)(C)n1[nH]c(-c2ccccc2)cc1=N", "103 to 105 °C"],
  ["CC1(C)CCc2sc(C(=O)O)cc2C1", "138 to 140 °C"],
  ["OCCOc1cncc(Br)c1", "51 to 53 °C"],
  ["O=C(O)C(O)c1cc(Cl)cc(Cl)c1 (stereo not given)", "99 to 101 °C"],
  ["CCC1(C(=O)O)CCN(C(=O)c2ccccc2)CC1", "154 to 156 °C"],
  ["COc1ccc(S(N)(=O)=O)cc1[N+](=O)[O-]", "139 to 141 °C"],
  ["N#Cc1cccc(C2(N)CC2)c1", "67 to 69 °C"],
  ["CCn1cc2ccc(N)cc2n1", "97 to 99 °C"],
  ["Nc1cccc(C(=O)N2CCCCC2)c1", "121 to 123 °C"],
  ["COc1cc(C=O)ccc1OCc1ccc(Br)cc1", "74 to 76 °C"],
  ["CN(C(=O)c1ccc(Cl)c(N)c1)c1ccccc1", "120 to 122 °C"],
  ["CC(=O)Nc1c(C)n[nH]c1C", "202 to 204 °C"],
  ["CC(Nc1ccc(N(C)C)cc1)c1ccccn1 (stereo not given)", "121 to 123 °C"],
  ["CNCC1CCN(CC(O)c2ccccc2)CC1 (stereo not given)", "47 to 49 °C"],
  ["O=C(O)C(F)=C1CCCC1", "83 to 85 °C"],
  ["CC(=O)Nc1ccc(C)c(N)c1", "134 to 136 °C"],
  ["O=C(O)CC(O)c1ccc(Cl)cc1 (stereo not given)", "197 to 199 °C"],
  ["CC(=O)NCc1ccc(C(=O)C(C)Cl)o1 (stereo not given)", "64 to 66 °C"],
  ["Cn1c(C=O)nc2c1c(=O)[nH]c(=O)n2C", "284 to 286 °C"],
  ["Cc1cc(C(=O)CCC(=O)O)c(C)s1", "105 to 108 °C"],
  ["N#Cc1cnc2ccc(OC(F)F)cc2c1Cl", "103 to 105 °C"],
  ["O=C(CCl)NCC1(c2ccccc2)CCCCC1", "54 to 56 °C"],
  ["Cc1cc(O)cc(=O)n1C(C)C(=O)O (stereo not given)", "258 to 260 °C"],
  ["Cc1nc2cc(=O)[nH]n2c(C)c1CC(=O)O", "285 to 287 °C"],
  ["CCC1=NN(C)C(=O)C1", "89 to 91 °C"],
  ["CCOc1ccc(N)cc1S(N)(=O)=O", "154 to 156 °C"],
  ["Cc1nn(-c2ccccc2)c(C)c1NC(=O)CCCl", "119 to 121 °C"],
  ["O=C(CCl)NCC(=O)c1ccccc1Br", "103 to 105 °C"],
  ["O=[N+]([O-])c1cnn(CC2CO2)c1 (stereo not given)", "68 to 70 °C"],
  ["O=C(NCc1cccc(Br)c1)NC1(C(=O)O)CCCC1", "170 to 172 °C"],
  ["CC(C)(Cc1cccc(Cl)c1)C(=O)O", "56 to 58 °C"],
  ["O=C1CCSc2ccccc2N1", "208 to 210 °C"],
  ["Cc1c(NCC(C)(C)C)cccc1C(=O)O", "135 to 137 °C"],
  ["O=C1CCc2cc(F)ccc2N1", "134 to 136 °C"],
  ["O=C(O)C(Sc1cc(F)ccc1F)c1ccccc1 (stereo not given)", "106 to 108 °C"],
  ["Oc1cccc(-c2nnc3n2CCCCC3)c1", "244 to 246 °C"],
  ["Cn1c(=O)[nH]c2ccccc2c1=O", "242 to 244 °C"],
  ["Nc1ccccc1NC(=O)c1ccncc1", "179 to 181 °C"]
]}
